shrunken log2 fold change listing for selected sequences.
Test system: Escherichia coli TOP10
Assay: shrunken log2 fold change of peptide-encoding DNA abundance (4.5 h post-induction vs induction); higher = less antimicrobial activity (less host growth inhibition)
Settings: time post-induction: 4.5 h; library: site-saturation at positions 5, 18, 19, 20

• RRIRCRPPRLPRPRPRPWWDPRP = 0.00335
• RRIRNRPPRLPRPRPRPDETPRP = -0.00208
• RRIRIRPPRLPRPRPRPQPSPRP = -0.214
• RRIRLRPPRLPRPRPRPTSEPRP = -0.0829
• RRIRMRPPRLPRPRPRPSAFPRP = 1.26

Challenge: Name the recorded shrunken log2 fold change of the sequence listed here: `RRIRRRPPRLPRPRPRPDEVPRP`
Response given: 0.61

Challenge: State, in one line, measured shrunken log2 fold change of `RRIRSRPPRLPRPRPRPRERPRP`
Response given: 0.431

Challenge: Using the record for `RRIRPRPPRLPRPRPRPWKHPRP` , state its measured shrunken log2 fold change.
Response given: -0.19

* * *

Test system: Escherichia coli TOP10
Experiment: shrunken log2 fold change of peptide-encoding DNA abundance (4.5 h post-induction vs induction); higher = less antimicrobial activity (less host growth inhibition)
Details: time post-induction: 4.5 h; library: site-saturation at positions 5, 18, 19, 20
Class assignment keyed on shrunken log2 fold change, ranges class 1 (below -0.09), class 2 (-0.09 to below 0.08), class 3 (0.08 or more)

Below are worked cases with known answers.
• RRIRERPPRLPRPRPRPNSWPRP = class 2
• RRIRFRPPRLPRPRPRPERWPRP = class 3

Challenge: Lab note: sort `RRIRDRPPRLPRPRPRPSKHPRP` into the matching shrunken log2 fold change band.
Response given: class 1

* * *

Tested on: Escherichia coli TOP10
Test: shrunken log2 fold change of peptide-encoding DNA abundance (4.5 h post-induction vs induction); higher = less antimicrobial activity (less host growth inhibition)
Conditions: time post-induction: 4.5 h; library: site-saturation at positions 5, 18, 19, 20
Collected shrunken log2 fold change values appear next to each entry.
Answer using only a numeral; do not append any unit.

Challenge: // fetch shrunken log2 fold change given entry `RRIRNRPPRLPRPRPRPPRRPRP`
Response given: 0.518

* * *

Test system: Escherichia coli TOP10
Experiment: shrunken log2 fold change of peptide-encoding DNA abundance (4.5 h post-induction vs induction); higher = less antimicrobial activity (less host growth inhibition)
Conditions: time post-induction: 4.5 h; library: site-saturation at positions 5, 18, 19, 20
Class field: derived from shrunken log2 fold change; ranges A = under -0.04, B = from -0.04 up to 0.07, C = 0.07 and over

Examples with answers:
• RRIRPRPPRLPRPRPRPYTCPRP = A
• RRIRRRPPRLPRPRPRPIAAPRP = C

Challenge: Using the reported shrunken log2 fold change, which band applies to `RRIRYRPPRLPRPRPRPCHVPRP` ?
Response given: A

Challenge: Please let me know in which category the item `RRIRFRPPRLPRPRPRPNFKPRP` belongs.
Response given: A

Challenge: Band of `RRIRGRPPRLPRPRPRPTYLPRP` ?
Response given: C

Challenge: Class (by measured shrunken log2 fold change) for `RRIRERPPRLPRPRPRPMSLPRP`
Response given: B

Challenge: Tag the class for `RRIRYRPPRLPRPRPRPQEAPRP`
Response given: B

Challenge: Hello team, could you let me know which band the following sequence falls into: `RRIRMRPPRLPRPRPRPTGEPRP`
Response given: B

Challenge: Lab note: sort `RRIRNRPPRLPRPRPRPFSAPRP` into the matching shrunken log2 fold change band.
Response given: A

* * *

Measured shrunken log2 fold change, listed per entry.
System: Escherichia coli TOP10
Experiment: shrunken log2 fold change of peptide-encoding DNA abundance (4.5 h post-induction vs induction); higher = less antimicrobial activity (less host growth inhibition)
Conditions: time post-induction: 4.5 h; library: site-saturation at positions 5, 18, 19, 20
Output spec: single numeric token, no unit.

* RRIRERPPRLPRPRPRPFFLPRP | -0.384
* RRIRHRPPRLPRPRPRPDLWPRP | 0.0395
* RRIRDRPPRLPRPRPRPVGHPRP | 0.423

Challenge: Please report the measured shrunken log2 fold change for `RRIRFRPPRLPRPRPRPDIPPRP` tested on Escherichia coli TOP10.
Response given: -0.634

Challenge: Recall the reported shrunken log2 fold change of `RRIRQRPPRLPRPRPRPPEWPRP` when tested on Escherichia coli TOP10.
Response given: -0.0462

Challenge: Give shrunken log2 fold change for this entry on Escherichia coli TOP10: `RRIRKRPPRLPRPRPRPAKLPRP`
Response given: 0.446

Challenge: # lookup: Escherichia coli TOP10 shrunken log2 fold change, key = `RRIRCRPPRLPRPRPRPHFRPRP`
Response given: -0.308

Challenge: For Escherichia coli TOP10, give shrunken log2 fold change of the listed sequence: `RRIRHRPPRLPRPRPRPWHFPRP`
Response given: -0.0331

* * *

Entries and their shrunken log2 fold change
System: Escherichia coli TOP10
Assay: shrunken log2 fold change of peptide-encoding DNA abundance (4.5 h post-induction vs induction); higher = less antimicrobial activity (less host growth inhibition)
Settings: time post-induction: 4.5 h; library: site-saturation at positions 5, 18, 19, 20
No unit in the answer, please; the number alone is enough.

Consider the worked cases shown below.
• RRIRMRPPRLPRPRPRPRCIPRP = -0.0309
• RRIRARPPRLPRPRPRPCTQPRP = 0.148

Challenge: Identify measured shrunken log2 fold change associated with `RRIRYRPPRLPRPRPRPFYFPRP`
Response given: -0.961

Challenge: Specify reported shrunken log2 fold change for the sequence shown: `RRIRNRPPRLPRPRPRPAWSPRP`
Response given: 0.0515

* * *

Tested on: Escherichia coli TOP10
Assay: shrunken log2 fold change of peptide-encoding DNA abundance (4.5 h post-induction vs induction); higher = less antimicrobial activity (less host growth inhibition)
Conditions: time post-induction: 4.5 h; library: site-saturation at positions 5, 18, 19, 20
shrunken log2 fold change below 0.5 gives N; shrunken log2 fold change at or above it gives Y.

Completed entries (count: 6):
- RRIRTRPPRLPRPRPRPVRGPRP: Y
- RRIRWRPPRLPRPRPRPLDEPRP: Y
- RRIRHRPPRLPRPRPRPYFAPRP: Y
- RRIRIRPPRLPRPRPRPHNRPRP: N
- RRIRERPPRLPRPRPRPQADPRP: N
- RRIRYRPPRLPRPRPRPSEGPRP: N

Challenge: Item `RRIRMRPPRLPRPRPRPEDIPRP` with shrunken log2 fold change of 0.5 or above?
Response given: N

Challenge: # check: shrunken log2 fold change of `RRIRFRPPRLPRPRPRPEGWPRP` is greater than or equal to 0.5
Response given: Y

* * *

System: Escherichia coli TOP10
Assay: shrunken log2 fold change of peptide-encoding DNA abundance (4.5 h post-induction vs induction); higher = less antimicrobial activity (less host growth inhibition)
Conditions: time post-induction: 4.5 h; library: site-saturation at positions 5, 18, 19, 20
# label = bin(measured shrunken log2 fold change), where bins are group A: < -0.08; group B: ≥ -0.08 and < 0.2; group C: ≥ 0.2

Take a look at these entries with their results.
* RRIRTRPPRLPRPRPRPWLTPRP | group A
* RRIRIRPPRLPRPRPRPLGFPRP | group A
* RRIRNRPPRLPRPRPRPKEVPRP | group B
* RRIRLRPPRLPRPRPRPKGNPRP | group A
* RRIRYRPPRLPRPRPRPETPPRP | group B
* RRIRIRPPRLPRPRPRPKTMPRP | group A

Next sequence, please.
Challenge: Just checking, what class would you give `RRIRARPPRLPRPRPRPAHGPRP` here?
Response given: group C

* * *

Tested on: Escherichia coli TOP10
Experiment: shrunken log2 fold change of peptide-encoding DNA abundance (4.5 h post-induction vs induction); higher = less antimicrobial activity (less host growth inhibition)
Conditions: time post-induction: 4.5 h; library: site-saturation at positions 5, 18, 19, 20
shrunken log2 fold change vs 0.02: at or above is True, below is False.

Field: example entries. Status: answers known.
- RRIRLRPPRLPRPRPRPELTPRP: True
- RRIRYRPPRLPRPRPRPPKHPRP: False
- RRIRCRPPRLPRPRPRPLNAPRP: False

Challenge: Can `RRIRPRPPRLPRPRPRPQEEPRP` be said to have shrunken log2 fold change at or above 0.02?
Response given: True

Challenge: Dear colleague, could you confirm whether `RRIRSRPPRLPRPRPRPMKCPRP` has shrunken log2 fold change at or above 0.02?
Response given: True

* * *

Tested on: Escherichia coli TOP10;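 note: peptides expressed intracellularly from a pBAD plasmid library in pooled LB shake-flask culture, induced with 0.3% L-arabinose, DNA abundance read by NGS, three biological replicates, DESeq2 with apeglm shrinkage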
Assay: shrunken log2 fold change of peptide-encoding DNA abundance (4.5 h post-induction vs induction); higher = less antimicrobial activity (less host growth inhibition)
Conditions: time post-induction: 4.5 h; library: site-saturation at positions 5, 18, 19, 20
shrunken log2 fold change by entry:
// keep it numeric: no unit symbol after the value

Sample records with shrunken log2 fold change:
• RRIRPRPPRLPRPRPRPHIMPRP = -0.663
• RRIRVRPPRLPRPRPRPHHEPRP = -0.582
• RRIRERPPRLPRPRPRPLMQPRP = 0.0114

Challenge: Identify measured shrunken log2 fold change associated with `RRIRHRPPRLPRPRPRPMNTPRP`
Response given: -0.616

Challenge: Assign shrunken log2 fold change to the following record: `RRIRSRPPRLPRPRPRPMHRPRP`
Response given: 0.0682

Challenge: Tell me its shrunken log2 fold change given `RRIRARPPRLPRPRPRPPVTPRP` as the entry.
Response given: 0.354

Challenge: Give reported shrunken log2 fold change value for `RRIRRRPPRLPRPRPRPCQQPRP`
Response given: -0.0197

Challenge: Identify measured shrunken log2 fold change associated with `RRIRNRPPRLPRPRPRPSHRPRP`
Response given: 0.0906

Challenge: Hello, please tell me recorded shrunken log2 fold change for this one: `RRIRARPPRLPRPRPRPCNRPRP`
Response given: 0.0805

Challenge: For the sequence `RRIRVRPPRLPRPRPRPKRAPRP` , give its measured shrunken log2 fold change value.
Response given: 0.553

Challenge: Indicate its recorded shrunken log2 fold change; the sequence in question is `RRIRDRPPRLPRPRPRPQHTPRP`
Response given: -0.403

Challenge: Consider the sequence `RRIRIRPPRLPRPRPRPAFSPRP` and give its recorded shrunken log2 fold change.
Response given: -0.155

Challenge: Give shrunken log2 fold change for the following sequence: `RRIRARPPRLPRPRPRPCIYPRP`
Response given: -0.0979

Challenge: Look up and state reported shrunken log2 fold change for `RRIRIRPPRLPRPRPRPSVDPRP`
Response given: -0.326
